Tested on: FaDu
measurement_protocol: mitochondrial oxygen consumption rate normalised to cell number, Z score vs plate DMSO wells; higher = higher oxygen consumption (negative = OCR reduction)
protocol_conditions: 10 µM; treatment time 24 h; assay medium: 5 mM glucose, 5 mM pyruvate, 4 mM glutamine
Cut-off -0.4 on mitochondrial oxygen consumption rate normalised, inclusive. At or above means satisfied; below means not satisfied.

Solved cases below.
{"columns": ["mol", "study_system", "group"],
 "data": [
  ["CC(C)[N+](C)(CCC(C(N)=O)(c1ccccc1)c1ccccc1)C(C)C", "FaDu", "satisfied"],
  ["CCN1C[C@]2(COC)[C@H](O)C[C@H](OC)[C@@]34[C@@H]5C[C@@]6(O)[C@H](OC(=O)c7ccccc7)[C@@H]5[C@@](OC(C)=O)([C@@H]([C@H](OC)[C@H]23)[C@@H]14)[C@@H](O)[C@@H]6OC", "FaDu", "not satisfied"],
  ["C=C1C[C@@H]2[C@H](CC[C@]3(C)C(=O)CC[C@@H]23)[C@@]2(C)C=CC(=O)C=C12", "FaDu", "satisfied"],
  ["COc1cc([C@@H]2c3cc4c(cc3[C@H](O)[C@H]3COC(=O)[C@H]23)OCO4)cc(OC)c1OC", "FaDu", "not satisfied"]
]}

Textbook exercise: given the entry CC[C@H]1CN2CCc3cc(OC)c(OC)cc3[C@@H]2C[C@@H]1C[C@H]1NCCc2cc(OC)c(OC)cc21 , state whether its mitochondrial oxygen consumption rate normalised is greater than or equal to -0.4.
not satisfied

----------
System: FaDu
measurement_protocol: mitochondrial oxygen consumption rate normalised to cell number, Z score vs plate DMSO wells; higher = higher oxygen consumption (negative = OCR reduction)
protocol_conditions: 0.08 µM; treatment time 24 h; assay medium: 5 mM glucose, 5 mM pyruvate, 4 mM glutamine
measurement_label: mitochondrial oxygen consumption rate normalised
Just the number, please.

Example cases with answers are listed next.
{"columns": ["mol", "assay_value"],
 "data": [
  ["C=C1C[C@@H]2[C@H](CC[C@]3(C)C(=O)CC[C@@H]23)[C@@]2(C)C=CC(=O)C=C12", -0.364],
  ["S=C=NCc1ccccc1", 0.549],
  ["CC(=O)Oc1ccc(Cl)c2cccnc12", 1.68]
]}

Switching to the query record.
Provide the reported mitochondrial oxygen consumption rate normalised (system: FaDu) for CC(=O)O[C@H]1C[C@H](O[C@H]2[C@@H](O)C[C@H](O[C@H]3[C@@H](O)C[C@H](O[C@H]4CC[C@@]5(C)[C@H](CC[C@@H]6[C@@H]5C[C@@H](O)[C@]5(C)[C@@H](C7=CC(=O)OC7)CC[C@]65O)C4)O[C@@H]3C)O[C@@H]2C)O[C@H](C)[C@H]1O[C@@H]1O[C@H](CO)[C@@H](O)[C@H](O)[C@H]1O
-0.88

----------
System: FaDu;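 also: compound exposure in DMEM (4 mM L-glutamine, 5 mM glucose), antimycin A injected at 2 µM after the basal reading and its residual OCR subtracted from basal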
measurement_protocol: mitochondrial oxygen consumption rate normalised to cell number, Z score vs plate DMSO wells; higher = higher oxygen consumption (negative = OCR reduction)
protocol_conditions: 2 µM; treatment time 24 h; assay medium: 5 mM glucose, 5 mM pyruvate, 4 mM glutamine
Each entry gets Criterion not met if its mitochondrial oxygen consumption rate normalised stays under 0.2, and Criterion met if its mitochondrial oxygen consumption rate normalised is 0.2 or above.

Assess whether reported mitochondrial oxygen consumption rate normalised for COc1cc([C@@H]2c3cc4c(cc3[C@H](O)[C@H]3COC(=O)[C@H]23)OCO4)cc(OC)c1OC sits at 0.2 or higher.
Criterion met

Entry CCCCCCCCCCCCCCCC[n+]1ccccc1 : is its mitochondrial oxygen consumption rate normalised no less than 0.2?
Criterion not met

Check this compound for mitochondrial oxygen consumption rate normalised at or above 0.2: CC(C)[N+](C)(CCC(C(N)=O)(c1ccccc1)c1ccccc1)C(C)C
Criterion met

Check the entry S=C=NCc1ccccc1 : does mitochondrial oxygen consumption rate normalised equal or exceed 0.2?
Criterion not met

State whether the measured mitochondrial oxygen consumption rate normalised reaches 0.2, counting equality as reaching it, for CC(=O)Oc1ccc(Cl)c2cccnc12
Criterion met

Identify whether the reported mitochondrial oxygen consumption rate normalised of the following compound is 0.2 or greater: CCN1C[C@]2(COC)[C@H](O)C[C@H](OC)[C@@]34[C@@H]5C[C@@]6(O)[C@H](OC(=O)c7ccccc7)[C@@H]5[C@@](OC(C)=O)([C@@H]([C@H](OC)[C@H]23)[C@@H]14)[C@@H](O)[C@@H]6OC
Criterion not met

Does mitochondrial oxygen consumption rate normalised meet or surpass 0.2 for O=c1[nH]c2ccccc2n1C1CCN(CCCC(c2ccc(F)cc2)c2ccc(F)cc2)CC1 ?
Criterion not met

Numbers sourced from the supplement of paper PMC4962491.
